The values you see were collected from patent US20180228828A1.

- assay protocol: human bioavailability comparison study, Tablet Formulation 10 vs co-administered single entity products
- Type: in vivo
- condition info: human, plasma, oral, Treatment B: one unit Tablet Formulation 10a; human plasma, fasted; read-out: C24 GM
Assign concentration at 24 h to each entry below.
Write it as a number; the unit nM goes unstated.

Complete the entry with concentration at 24 h for COC(=O)N[C@H](C(=O)N1CCC[C@H]1c1nc(-c2ccc3c(c2)O[C@@H](c2ccccc2)n2c-3cc3cc(-c4c[nH]c([C@@H]5CCCN5C(=O)[C@@H](NC(=O)OC)C(C)C)n4)ccc32)c[nH]1)C(C)C 25.1

For C=C[C@@H]1C[C@]1(NC(=O)[C@@H]1C[C@@H]2CN1C(=O)[C@H](C(C)(C)C)NC(=O)O[C@@H]1C[C@H]1CCCCCc1nc3ccc(OC)cc3nc1O2)C(=O)NS(=O)(=O)C1CC1 [Compound III, hydrate] , write its concentration at 24 h. 3.89
